Molecular target: KRAS G13D (Homo sapiens (Human), UniProt P01116+P62937, G13D)
Sequence (P01116 other isoform, or with tags, fused parts or gaps G13D): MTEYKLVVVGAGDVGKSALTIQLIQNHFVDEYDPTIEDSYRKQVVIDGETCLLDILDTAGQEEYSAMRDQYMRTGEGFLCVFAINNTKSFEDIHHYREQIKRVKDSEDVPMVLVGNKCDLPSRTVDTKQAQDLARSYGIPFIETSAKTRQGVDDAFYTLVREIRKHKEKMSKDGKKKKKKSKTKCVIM
Sequence (P62937 whole entry): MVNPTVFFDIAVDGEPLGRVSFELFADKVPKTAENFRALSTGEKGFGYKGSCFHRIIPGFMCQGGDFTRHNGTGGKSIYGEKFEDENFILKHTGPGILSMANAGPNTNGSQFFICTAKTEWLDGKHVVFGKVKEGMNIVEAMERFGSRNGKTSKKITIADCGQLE
Experiment: Ras-Raf disruption/FRET/MOA assay (BRAF RBD, Cyclophilin A)
Type: biochemical
Conditions: read-out: KRAS G13D FRET data IC50
pIC50: −log10 of the molar value.
Consider the following compounds and their measured pIC50 readings.
PARAMETER_MEASURED: pIC50

CCn1c(-c2cccnc2[C@H](C)OC)c2c3cc(ccc31)-c1cc(O)cc(c1)C[C@H](NC(=O)[C@H](C(C)C)N(C)C(=O)C1CCCC1)C(=O)N1CCC[C@H](N1)C(=O)OCC(C)(C)C2 [Compound A219]: 6.00 to 7.00
CCn1c(-c2cccnc2[C@H](C)OC)c2c3cc(ccc31)-c1cc(O)cc(c1)C[C@H](NC(=O)[C@H](C(C)C)N(C)C(=O)[C@@]1(F)CCN(C(=O)OC)C1)C(=O)N1CCC[C@H](N1)C(=O)OCC(C)(C)C2 [Compound A615]: 7.00 to 8.00
